Molecular target: T1, Cyno CD98hc ECD Avi-His (cynomolgus macaque, UniProt P08195 105-529 (human entry))
T1 construct: biotinylated on the Avi tag where captured on streptavidin; also called Cyno CD98-AVI-His; Cyno CD98hc-AVI-His
T1 chain: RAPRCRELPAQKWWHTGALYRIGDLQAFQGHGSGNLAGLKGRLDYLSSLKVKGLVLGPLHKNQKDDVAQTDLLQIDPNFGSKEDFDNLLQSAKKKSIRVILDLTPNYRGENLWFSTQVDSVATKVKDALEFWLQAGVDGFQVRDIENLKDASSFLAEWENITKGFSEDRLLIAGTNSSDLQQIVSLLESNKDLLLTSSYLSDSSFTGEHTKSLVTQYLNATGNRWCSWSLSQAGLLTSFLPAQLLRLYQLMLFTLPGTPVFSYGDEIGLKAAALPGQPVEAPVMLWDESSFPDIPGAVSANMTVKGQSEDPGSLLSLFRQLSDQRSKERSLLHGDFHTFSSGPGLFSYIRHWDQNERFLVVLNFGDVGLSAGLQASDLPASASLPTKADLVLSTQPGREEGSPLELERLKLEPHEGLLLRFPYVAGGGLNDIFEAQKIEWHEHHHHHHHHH
Assay: SPR, Biacore T200, anti-kappa capture
valueType: Kd (nM)
One number for each entry, in nM.

**Query** Given the binder CD98hc.04.064.4a (humanized, 2+1 format) (bispecific antibody, tested as 2+1 bispecific (scFv on an IgG)) scFv: QVQLVQSGAEVKKPGASVKVSCKASGYTFTSYWMNWVRQAPGQGLEWMGIIDPSDSETNYAQKFQGRVTSTVDKSISTAYMELSRLRSDDTVVYYCARASYGKGYFDYWGQGTLVTVSSGGSEGKSSGSGSESKSTGGSDIVMTQSPDSLAVSLGERATINCKSSQSLLNNINQKNYLAWYQQKPGQPPKLLIYFASTRESGVPDRFSGSGSGTDFTLTISSLQAEDVAVYYCQQHYSSPFTFGGGTKVEIK , what is its reported Kd?
**Result** 430
